# targetEntity: PolQ ATPase enzyme (1-894) (Homo sapiens (Human), UniProt O75417)
# Sequence (O75417 1-894): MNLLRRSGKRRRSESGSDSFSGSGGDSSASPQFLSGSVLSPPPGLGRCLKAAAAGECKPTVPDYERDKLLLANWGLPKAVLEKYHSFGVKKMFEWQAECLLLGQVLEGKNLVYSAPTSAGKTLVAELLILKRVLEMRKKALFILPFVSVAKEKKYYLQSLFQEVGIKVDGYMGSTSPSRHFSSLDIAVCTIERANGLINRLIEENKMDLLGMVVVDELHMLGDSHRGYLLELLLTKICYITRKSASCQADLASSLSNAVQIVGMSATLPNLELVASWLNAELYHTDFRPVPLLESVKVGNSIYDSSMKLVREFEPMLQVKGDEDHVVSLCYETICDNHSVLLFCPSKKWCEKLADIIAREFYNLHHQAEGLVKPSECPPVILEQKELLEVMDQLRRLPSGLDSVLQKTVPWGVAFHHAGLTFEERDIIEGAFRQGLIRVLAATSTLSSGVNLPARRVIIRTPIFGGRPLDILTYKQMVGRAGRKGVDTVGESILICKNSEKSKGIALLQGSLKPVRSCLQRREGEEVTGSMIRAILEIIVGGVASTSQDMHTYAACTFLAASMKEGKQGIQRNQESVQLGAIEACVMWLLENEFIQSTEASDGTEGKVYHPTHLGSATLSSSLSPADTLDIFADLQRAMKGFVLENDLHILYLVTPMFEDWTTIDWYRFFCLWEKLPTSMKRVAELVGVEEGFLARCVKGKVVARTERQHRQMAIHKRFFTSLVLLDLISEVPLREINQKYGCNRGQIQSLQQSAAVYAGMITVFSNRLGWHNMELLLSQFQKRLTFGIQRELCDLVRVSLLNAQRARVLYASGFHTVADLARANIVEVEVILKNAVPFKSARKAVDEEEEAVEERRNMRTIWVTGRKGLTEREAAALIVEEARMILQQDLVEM
# assayText: Polθ ATPase enzymatic assay (0.5 nM enzyme concentration), ADP-Glo
# Assay type: biochemical
# conditionDetails: average IC50; 0.5 nM PolQ ATPase enzyme (1-894)
quantityKind: IC50 (nM)

[
  {
    "compound": "COc1cnc(C(F)F)cc1-c1cc(CC#N)ncc1C(=O)Nc1ncc(C#CC2CC2)s1",
    "IC50 [nM]": 0.53
  }
]

1 = COc1ccc(C(F)(F)F)cc1-c1cn(C)c(=O)cc1C(=O)Nc1nnc(C#CC2CC2)s1
2 = COc1cnc(Cl)cc1-c1cc(-c2cc[nH]n2)ccc1C(=O)Nc1nnc(C#CC2CC2)s1
Exam item: Please state the entry with greater IC50 among 1 and 2 . Your choice should be expressed through its label.
Marked response: 1

1 = COc1cnc(C(F)(F)F)cc1-c1cn(C)c(=O)cc1C(=O)Nc1nnc(C#CC2CC23CC3)s1 (stereo not drawn)
2 = COc1cnc(C(F)F)cc1-c1cc(CC(=O)N2CC(C)(O)C2)ccc1C(=O)Nc1ncc(C#CC2CC2)s1
Exam item: Please state the entry with greater IC50 among 1 and 2 . Your choice should be expressed through its label.
Marked response: 1
(1: 0.91 nM, 2: 0.16 nM)
